# System: Human betaherpesvirus 5
# Protocol Description: Antiviral activity against wild type HCMV AD169 infected in HEL cells assessed as inhibition of virus-induced cytopathicity
# Type: functional, organism-based
# Condition Info: Human betaherpesvirus 5, AD169, HEL
List of EC50 values.
API: value field is a number in µM; no unit string.

A selection of reference data follows.
INSERT INTO measurements (molecule, measured_result) VALUES
  ('Nc1ccn(C[C@@H](CO)OCP(=O)(O)O)c(=O)n1 [CIDOFOVIR]', 0.076),
  ('CCC1(Cc2ccccc2)OS(=O)(=O)C=C1OCc1ccc(Cl)cc1 (racemic)', 11),
  ('Nc1ncnc2c1ncn2C[C@@H](CO)OCP(=O)(O)O', 0.17),
  ('Nc1nc2c(ncn2COC(CO)CO)c(=O)[nH]1 [GANCICLOVIR]', 0.7),
  ('Nc1nc2c(ncn2COCCO)c(=O)[nH]1 [ACYCLOVIR]', 15);

-- ask Which measured EC50 belongs to O=C(O)P(=O)(O)O [FOSCARNET] , tested on Human betaherpesvirus 5?
-- reply 13

-- ask Quick check: EC50 on Human betaherpesvirus 5, item Nc1nc(N)c2ncn(CCOCP(=O)(O)O)c2n1 [PMEDAP] ?
-- reply 8.4
